Taken from PubChem BioAssay (NCI).

- Test system: NCI-H460 lung
Select the correct class. Options are t for active, f for inactive and nothing else.

Use these answered entries as a reference point.
// return assay outcome for `CC(C)C[C@@H](N)[C@@H](O)C(=O)N[C@H](C(=O)N[C@H](C(=O)N[C@@H](CC(=O)O)C(=O)O)C(C)C)C(C)C`
f

Test call, this compound: `CCCCCCCC/C=C/CCCCCCCC1=NC(C)(C)CN1C(C)(C)CO`
f

State the result this test recorded for [N-]=[N+]=CC(=O)CCC(N)C(=O)O (configuration not stated) .
f

Given `O=C(Nc1n[nH]c2cc(-c3cc(F)ccc3F)ccc12)C1CC1` , state the outcome it received in this test.
f

Now consider the entry below.
// return assay outcome for `C[C@@H]1C[C@@H]([C@H](O)CC2CC(=O)NC(=O)C2)C(=O)[C@@H](C)C1`
t

###

TGI for assorted compounds
- Tested on: SNB-75 CNS
- assay info: NCI tumour cell line growth inhibition, 48 h

Examples with answers:
# return recorded TGI for input CC(Nc1ccc(Cl)cc1)c1ccncc1 (stereo not given)
> 100 µM

Read the entry CN(CCCCCl)P(=O)(OCc1ccc([N+](=O)[O-])o1)OCC1OC(n2ccc(N)nc2=O)C(O)C1O (stereo not given) and write its reported TGI.
5.59 µM

Return value of TGI for input COc1cc2c(cc1O)C1Cc3ccc(OC)c(O)c3C[N+]1(C)CC2 (stereo not given) , no commentary.
> 100 µM

Answer with reported TGI of `Cc1nc(NC(C)(CO)CO)nc(N/N=C/c2ccc(Cl)cc2)c1C(=O)Nc1ccc(Cl)cc1`
> 100 µM

Complete the entry with TGI for `CCCCCCCC/C=C/CCCCCCCC1=NC(C)(C)CN1C(C)(C)CO`
5.77 µM

***
Output TGI of `C[C@@]1(F)[C@H](O)[C@@H](CO)O[C@H]1n1ccc(=O)[nH]c1=O`
> 100 µM

Identify the reported TGI for the following entry. `CCOC(=O)c1cc(-c2ccc(OC)cc2)c([N+](=O)[O-])[nH]1`
> 10 µM

Name the recorded TGI of the compound listed here: CCC1(O)CC(CCN(Cc2ccccc2)C(=O)OCc2ccccc2)C(OCc2ccccc2)C1O (stereo not given)
25.7 µM

Specify measured TGI for `CN(C)C(=S)/N=c1\ss/c(=N\C(=S)N(C)C)n1-c1cccc(Cl)c1` .
> 100 µM

Please give the documented TGI of `CC(=O)[CH-]C(C)=O.CC(=O)[CH-]C(C)=O.[O-]c1ccccc1.[O-]c1ccccc1.[Ti+4]`
> 100 µM

###

- System: SN12C renal
- assay info: NCI tumour cell line growth inhibition, 48 h
compounds and their reported TGI
Dear colleague, please return just the value in µM, with no unit written.

Below, each entry is followed by its recorded TGI result.
With SN12C renal as the test system, provide measured TGI for this compound: `Cn1c(COC(=O)NCCc2ccccn2)nc2c(N3CCOCC3)nc(Cl)nc21`
3.48

Please report TGI with SN12C renal for item CCCCNC(c1ccc(Cl)cc1)C(O)c1ccc(Cl)cc1 (stereo unspecified) .
10.6

Query compound follows.
Please look at COc1cc(C2CC(c3ccc(Nc4nc(NCCO)nc(NCCO)n4)cc3)=NN2c2cc(Cl)cc(Cl)c2)cc(OC)c1OC (stereo unspecified) and tell me its recorded TGI on SN12C renal.
3.82
